Biological target: human recombinant HDAC6 (Homo sapiens, UniProt Q9UBN7)
Test: HDAC6 enzyme activity inhibition assay (HDAC Fluorimetric Drug Discovery Kit)
Conditions: 30° C. 60 minutes
pIC50: −log10 of the molar value.
endpointLabel: pIC50

Recorded pIC50, per entry:
compound	pIC50
Cc1ccc(C2(Nc3ncc(-c4nnc(C(F)F)o4)cn3)CCC2)cc1 [Compound 1675]	7.41
FC(F)c1nnc(-c2cnc(NC3(c4ccc(OC(F)(F)F)cc4)CCC3)nc2)o1 [Compound 1822]	6.55

P. Fc1ccc(Cl)c(C2(Nc3ncc(-c4nnc(C(F)F)o4)cn3)CCC2)c1 [Compound 1961]
Q. FC(F)c1nnc(-c2cnc(NC3(c4cccc(C5CCN(C6COC6)CC5)c4)CCC3)nc2)o1 [Compound 2060]
R. CN1CCC(c2ccc(C3(Nc4ncc(-c5nnc(C(F)F)o5)cn4)CCC3)cc2)CC1 [Compound 2035]
S. Fc1cccc(F)c1C1(Nc2ncc(-c3nnc(C(F)F)o3)cn2)CCC1 [Compound 1828]
Rank the 4 compounds: largest pIC50 first, smallest last. API: response body holds the labels in the requested order.
S, P, Q, R
(S: 7.41, P: 6.94, Q: 6.66, R: 6.44)

----------
Target: human recombinant HDAC6 (Homo sapiens, UniProt Q9UBN7)
Sequence (Q9UBN7 1-1215): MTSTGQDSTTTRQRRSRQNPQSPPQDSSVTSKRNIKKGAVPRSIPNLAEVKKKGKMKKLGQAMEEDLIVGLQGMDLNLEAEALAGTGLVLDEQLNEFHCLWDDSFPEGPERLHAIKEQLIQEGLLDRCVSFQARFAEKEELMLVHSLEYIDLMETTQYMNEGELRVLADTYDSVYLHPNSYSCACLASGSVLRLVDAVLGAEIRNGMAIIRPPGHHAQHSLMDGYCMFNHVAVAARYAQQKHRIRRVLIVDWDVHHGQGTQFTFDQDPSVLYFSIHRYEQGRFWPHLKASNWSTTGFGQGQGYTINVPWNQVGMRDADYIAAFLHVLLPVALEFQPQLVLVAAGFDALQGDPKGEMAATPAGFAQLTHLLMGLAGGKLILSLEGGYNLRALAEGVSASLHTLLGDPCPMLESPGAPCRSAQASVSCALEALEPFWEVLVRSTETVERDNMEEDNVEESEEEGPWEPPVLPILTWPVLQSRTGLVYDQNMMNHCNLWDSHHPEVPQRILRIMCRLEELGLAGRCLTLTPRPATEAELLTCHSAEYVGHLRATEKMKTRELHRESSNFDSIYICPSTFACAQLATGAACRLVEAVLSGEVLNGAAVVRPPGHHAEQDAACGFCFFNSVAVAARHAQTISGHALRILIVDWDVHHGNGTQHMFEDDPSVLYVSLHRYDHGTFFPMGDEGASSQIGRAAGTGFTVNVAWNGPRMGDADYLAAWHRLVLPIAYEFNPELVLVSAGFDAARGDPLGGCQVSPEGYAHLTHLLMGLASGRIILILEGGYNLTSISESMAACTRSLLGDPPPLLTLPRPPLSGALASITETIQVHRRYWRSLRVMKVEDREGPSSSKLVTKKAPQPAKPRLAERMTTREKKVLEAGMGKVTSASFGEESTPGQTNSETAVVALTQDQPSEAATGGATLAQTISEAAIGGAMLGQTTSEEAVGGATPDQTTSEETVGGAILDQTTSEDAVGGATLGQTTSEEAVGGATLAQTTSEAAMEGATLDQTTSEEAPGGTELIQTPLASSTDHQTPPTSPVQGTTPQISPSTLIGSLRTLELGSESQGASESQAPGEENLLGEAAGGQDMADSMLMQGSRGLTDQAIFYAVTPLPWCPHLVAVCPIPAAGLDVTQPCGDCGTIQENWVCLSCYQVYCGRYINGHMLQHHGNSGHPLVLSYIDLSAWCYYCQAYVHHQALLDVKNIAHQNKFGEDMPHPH
Test: HDAC6 enzyme activity inhibition assay (HDAC Fluorimetric Drug Discovery Kit)
Conditions: 30° C. 60 minutes
endpointLabel: IC50 (nM)

1. FC(F)c1nnc(-c2cnc(NC3(c4cccc(Cl)c4)CCC3)nc2)o1 22

P. Fc1ccc(C2(Nc3ncc(-c4nnc(C(F)F)o4)cn3)CCC2)cc1
Q. FC(F)(F)c1nnc(-c2cnc(NC3(c4cccc(Cl)c4Cl)CCC3)nc2)o1
Param pair: P , Q . Output: the one whose IC50 is numerically greater. // return label of chosen record
Q
(Q: 750 nM, P: 38 nM)

I. Fc1cc(F)cc(C2(Nc3ncc(-c4nnc(C(F)F)o4)cn3)CC2)c1
II. Fc1ccc(C2(Nc3ncc(-c4nnc(C(F)(F)F)o4)cn3)CCC2)cc1
III. Fc1c(Cl)cccc1C1(Nc2ncc(-c3nnc(C(F)F)o3)cn2)CCC1
# sort list by recorded IC50, greatest to least # format: label list in the order the request specifies
II, III, I
(II: 455 nM, III: 70 nM, I: 33 nM)
